# Measurement Protocol: qHTS assay to identify small molecule antagonists of the thyroid receptor (TR) signaling pathway - cell viability counter screen (AID 743064); further: nearly all actives have a fitted effect of over 50% in size
# Measurement Context: GH3.TRE-Luc viability, CellTiter-Fluor, 24 h; series mostly up to 70.3 µM
Inconclusive results are not listed. Active and inactive are the calls of the source. The call rests on the fitted dose curve; in most records, active means well fitted cell-killing curve with a large enough effect in the repeat runs; inconclusive means weak or mixed curves, or effect the other way; inactive means no such curve, though single readings can be large or run the other way.
API: response.call in T = active, F = inactive

The following compounds have reported results that may help.
Compound: C[C@@H](O)[C@H]1C(=O)N2C(C(=O)[O-])=C(SC3Cn4cnc[n+]4C3)[C@H](C)[C@H]12 (stereo partly specified)
Group Label: F
--
Compound: NNc1nnc(Cc2ccncc2)c2ccccc12
Group Label: F
--
Compound: CCCCCCCCCCCCCC[n+]1ccc(C)cc1
Group Label: T
--
Compound: CCSc1ccc2c(c1)N(CCCN1CCN(C)CC1)c1ccccc1S2
Group Label: F

Query :: Short answer needed: outcome of this test for CN(C)CC/C=C1/c2ccccc2CSc2ccccc21 ?
Result :: T

Query :: Short answer needed: outcome of this test for O=S(O)CNc1ccc(S(=O)(=O)c2ccc(NCS(=O)O)cc2)cc1 ?
Result :: F
